- protocol: drug combination growth inhibition, ovarian cancer – cell-based, oncology-focused library, rucaparib conditional, profiling panel (AID 1508598)
- conditionSet: patient-derived ovarian cancer cells, CellTiter-Glo viability, 144 h; at 0.313 µM; OCI-P5x cells; with rucaparib 20 µM; stronger effect = lower value; 100% = cells with rucaparib alone
The entries below are paired with their reported viability.
Respond numerically; units are % and should not be typed.

Use these answered entries as a reference point.
COc1cc(C(=O)NC2CCN(C)CC2)ccc1Nc1ncc2c(n1)N(C1CCCC1)CC(F)(F)C(=O)N2C: 70.3
Cc1cc(C)c(S(=O)(=O)n2cc(C)cc2C)c(C)c1: 101
C[C@]12CC[C@H]3c4ccc(O)cc4CC[C@H]3[C@@H]1CCC2=O: 80.9
CCCc1ccc(OCC(=O)N(Cc2nc(-c3cccnc3)no2)C(C)C)cc1: 98.3

Problem: Tell me viability reported for `COc1cc([C@H]2c3cc4c(cc3[C@@H](O[C@@H]3O[C@@H]5CO[C@@H](c6cccs6)O[C@H]5[C@H](O)[C@H]3O)[C@H]3COC(=O)[C@H]23)OCO4)cc(OC)c1O`
Solution: 71

Problem: Read the entry `Cc1cc2c(C(=O)NC[C@H](C)c3ccccc3)c(O)c(O)cc2c(O)c1-c1c(C)cc2c(C(=O)NC[C@H](C)c3ccccc3)c(O)c(O)cc2c1O` and write its reported viability.
Solution: 96.3

Problem: For `Cc1[nH]c(C=C2C(=O)Nc3ccc(S(=O)(=O)Cc4c(Cl)cccc4Cl)cc32)c(C)c1C(=O)N1CCC[C@@H]1CN1CCCC1` , write its viability.
Solution: 93

Problem: State its viability: `CC1=C(/C=C/C(C)=C\C=C\C(C)=C/C(=O)O)C(C)(C)CCC1`
Solution: 93.9

Problem: Supply recorded viability for CCOC(=O)c1[nH]c2cc(Cl)ccc2c1C(C(=O)NC(C)(C)C)N(C=O)Cc1ccc(Cl)cc1 (stereo not given) here.
Solution: 99.6

Problem: Please look at this compound and report its viability: CC(=O)O[C@H]1C(=O)[C@@]2(C)C([C@H](OC(=O)c3ccccc3)[C@]3(O)C[C@H](OC(=O)[C@H](O)[C@@H](NC(=O)c4ccccc4)c4ccccc4)C(C)=C1C3(C)C)[C@]1(OC(C)=O)CO[C@@H]1C[C@H]2O (stereo not given in full)
Solution: 57.9

Problem: Specify reported viability for the compound shown: CCCCCOC(=O)Nc1nc(=O)n([C@@H]2O[C@H](C)[C@@H](O)C2O)cc1F (stereo not given in full)
Solution: 115

Problem: Respond only with viability recorded for `CC[C@]1(O)C[C@@H]2CN(CCc3c([nH]c4ccccc34)[C@@](C(=O)OC)(c3cc4c(cc3OC)N(C=O)[C@H]3[C@@](O)(C(=O)OC)[C@H](OC(C)=O)[C@]5(CC)C=CCN6CC[C@@]43[C@@H]65)C2)C1`
Solution: 49.8

Problem: Kindly indicate its recorded viability. Item: `CCOC(=O)NCCCC(=O)NCCc1ccccc1`
Solution: 88.9

Problem: Fill in reported viability for this entry: `C[C@@H]1C[C@H]2[C@@H]3CCC4=CC(=O)C=C[C@]4(C)[C@]3(F)[C@H](O)C[C@]2(C)[C@]1(O)C(=O)CO`
Solution: 104

Problem: Please give the documented viability of `CN(C)CCSSCCNC(=O)C1CCN(C(=O)CSc2ccc(Cl)cc2)CC1`
Solution: 98.4

* * *

- protocol: drug combination growth inhibition, ovarian cancer – cell-based, oncology-focused library, rucaparib conditional, profiling panel (AID 1508598)
- conditionSet: patient-derived ovarian cancer cells, CellTiter-Glo viability, 144 h; at 0.0195 µM; OCI-P5x cells; without rucaparib; stronger effect = lower value
readout: viability (%)
Give the value, in units of %, as a plain number.

Use the examples below as a reference point.
O=c1[nH]c(=O)n([C@@H]2C[C@H](O)[C@@H](CO)O2)cc1F: 100
CCOC(=O)c1cnc2ccc(-c3cncc(NS(=O)(=O)c4ccccc4)c3)cn12: 94.3
COC1=C2C[C@H](C)C[C@@H](OC)[C@H](O)[C@H](C)/C=C(\C)[C@H](OC(N)=O)[C@@H](OC)/C=C/C=C(\C)C(=O)NC(=CC1=O)C2=O: 4.97

Problem: Indicate its recorded viability; the molecule in question is `C[C@]12CCC(=O)C=C1CC[C@@H]1[C@H]2[C@H](O)C[C@@]2(C)[C@H]1CC[C@@]2(O)C(=O)CO`
Solution: 112

Problem: Kindly indicate its recorded viability. Item: `CCOc1ccc(Cc2cc([C@@H]3O[C@H](CO)[C@@H](O)[C@H](O)[C@@H]3O)ccc2Cl)cc1`
Solution: 107

Problem: Give the reported value of viability for this record: CCOC(=O)c1[nH]c2cc(Cl)ccc2c1C(C(=O)NC(C)(C)C)N(C=O)Cc1ccc(Cl)cc1 (configuration not stated)
Solution: 63.9

Problem: Indicate the recorded viability value for this molecule: C[C@@]12CC[C@H]3c4ccc(O)cc4C[C@@H](CCCCCCCCCS(=O)CCCC(F)(F)C(F)(F)F)[C@H]3[C@@H]1CC[C@@H]2O (some centres not stated)
Solution: 122

* * *

# key: entry, value: growth inhibition
- protocol: inhibition of 3D7 malaria parasite growth – strain 3D7 (AID 2306);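 note: 0% = DMSO wells and 100% = chloroquine plus artemisinin control wells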
- conditionSet: P. falciparum 3D7 erythrocytic growth, LDH absorbance, 72 h; at 2 µM; stronger effect = higher value
Return type: number; implicit unit %.

CN(C)c1cc(NN=Cc2cc(Cl)ccc2O)nc(N(C)C)n1: 98

Problem: Output measured growth inhibition for this item: CC1CCC(C[C@@H](C(=O)N[C@@H](CCC(=O)N2CCCCC2)C(=O)Nc2nccs2)[C@H](C(C)C)N(O)C=O)CC1 (some centres undefined)
Solution: 87

Problem: Note growth inhibition for the compound shown: `CCC[C@@H]([C@@H](CC(C)C)C(=O)N[C@@H](CCCN=C(N)NS(C)(=O)=O)C(=O)Nc1nccs1)N(O)C=O`
Solution: 95

Problem: Give the reported growth inhibition for this compound. `CC[C@@H]([C@@H](CC(C)C)C(=O)N[C@@H](CCCCNC(=O)OCc1ccccc1)C(=O)Nc1ccccn1)N(O)C=O`
Solution: 98

* * *

- protocol: growth inhibition, single agent and combos, cell-based, chromothripsis tumors, cisplatin or BGB combos (AID 1671450);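 note: cells exposed to compound for four days; 0% = vehicle DMSO and 100% = cell killing by high DMSO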
- conditionSet: HDN33 neuroblastoma cells, measured here: with BGB IC20 combination, at 0.5 µM, stronger effect = higher value
// values below are reported inhibition

Observe how each entry below is paired with its result.
O=C1N=c2ccccc2=C1c1c(O)[nH]c2ccccc12: 16.4%
CC1CN(c2c(F)c(N)c3c(=O)c(C(=O)O)cn(C4CC4)c3c2F)CC(C)N1 (stereo unspecified): 11.5%
O=C(CCCCCCC(=O)NO)NO: -13.7%
Cc1ccc(NC(=O)CCCCCC(=O)Nc2ccccc2N)cc1: -21.3%
CC(C)C(=O)SCCCCCCC(=O)Nc1nc(-c2ccccc2)cs1: 1.56%

Alright, here's another compound for you.
Problem: Give a short answer stating reported inhibition for `O=c1[nH]c(=S)[nH]c2nc(-c3ccccc3)c(-c3ccccc3)nc12` .
Solution: -5.44%

* * *

- protocol: drug combination growth inhibition, ovarian cancer – cell-based, oncology-focused library, rucaparib conditional, profiling panel (AID 1508598)
- conditionSet: patient-derived ovarian cancer cells, CellTiter-Glo viability, 144 h; at 5 µM; OCI-P5x cells; with rucaparib 20 µM; stronger effect = lower value; 100% = cells with rucaparib alone
Doc: threshold 7% (exclusive). Items with viability beneath it return 1; others return -1.

Below, 6 compounds whose answers are already recorded.
CC(C)NCCCn1c(Sc2cc3c(cc2I)OCO3)nc2c(N)ncnc21: -1
COC1=C2C[C@H](C)C[C@@H](OC)[C@H](O)[C@H](C)/C=C(\C)[C@H](OC(N)=O)[C@@H](OC)/C=C/C=C(\C)C(=O)NC(=CC1=O)C2=O: 1
CC(=O)O[C@H]1C(=O)[C@@]2(C)C([C@H](OC(=O)c3ccccc3)[C@]3(O)C[C@H](OC(=O)[C@H](O)[C@@H](NC(=O)c4ccccc4)c4ccccc4)C(C)=C1C3(C)C)[C@]1(OC(C)=O)CO[C@@H]1C[C@H]2O (some centres not stated): -1
CC(C)(C(=O)NCC(F)(F)C(F)(F)F)C(=O)N[C@H]1C(=O)Nc2ccccc2-c2ccccc21: -1
NC(=O)CCCSc1nc(N)nc(-c2c(Cl)cc3c4c(cccc24)COC3)n1: 1
C[C@H](O[C@H]1OCCN(Cc2n[nH]c(=O)[nH]2)[C@H]1c1ccc(F)cc1)c1cc(C(F)(F)F)cc(C(F)(F)F)c1: -1

Continue with the next compound.
Problem: Threshold test, viability < 7%: `CCCc1ccc(OCC(=O)N(Cc2nc(-c3cccnc3)no2)C(C)C)cc1`
Solution: -1

* * *

- protocol: viability loss with induced miR-34 in A549 – imaging, A549 dox-inducible miR-34, nuclei and caspase counts, primary screen (AID 1347080)
- conditionSet: A549 miR-34 inducible, Hoechst nuclei count, 48 h; measured here: total cells without miR-34 induction
cell count vs 9000: at or above is T, below is F.

Cc1cc(C)nc(-c2cnn(CC(=O)Nc3cc(C)nn3-c3ccccn3)c2)n1: F
CCOC(=O)C(CCc1ccccc1)NC(C)C(=O)N1Cc2cc(OC)c(OC)cc2CC1C(=O)O (stereo not given): F
C[C@@H]1C(=O)NC2=Nc3cccc(Cl)c3CN21: T
CC1CN(CC(=O)Nc2ccc3c(c2)Cc2cccc(-c4cc(=O)cc(N5CCOCC5)o4)c2S3)CC(C)O1 (stereo not given): F
CC(C)[N+]1(C)[C@@H]2CC[C@@H]1CC(OC(=O)C(CO)c1ccccc1)C2 (stereo not given in full): T

Problem: Threshold query (cell count >= 9000) on O=C(Nc1ccccc1)Nc1ccc(-c2ccc(C(=O)C3CCCC3C(=O)O)cc2)cc1 (stereo not given)
Solution: T

Problem: Could you tell me if the measured cell count of `O=C(C=Cn1cnc(-c2cc(C(F)(F)F)cc(C(F)(F)F)c2)n1)N1CC(F)(F)C1` reaches 9000 or more?
Solution: F

Problem: In plain terms: is recorded cell count at least 9000 for `O=C(Nc1cc(Br)c(O)c(Br)c1)c1ccccc1` ?
Solution: T

Provenance of the data: PubChem BioAssay
